Assay: SEM of crystallized suspensions and dried products (crystal size grade, particle size)
Type: physicochemical
Set-up: key: 5 = nanocrystals; 1 = large crystals
Conditions: Poloxamer 407 1 wt.-%, no SLS, mAPI 25 mg/g
measurementType: Grade (SEM, visual inspection)

CCCC1O[C@@H]2C[C@H]3[C@@H]4CCC5=CC(=O)C=C[C@]5(C)[C@H]4[C@@H](O)C[C@]3(C)[C@]2(C(=O)CO)O1 (stereo partly shown) [Bude, budesonide]
1
CNC(=O)c1ccc(N2C(=S)N(c3cnc(C#N)c(C(F)(F)F)c3)C(=O)C23CCC3)cc1F [Apa, apalutamide]
2

P. O=C1[C@H](CC[C@H](O)c2ccc(F)cc2)[C@@H](c2ccc(O)cc2)N1c1ccc(F)cc1 [Eze, ezetimibe]
Q. Cc1cc(Nc2ncc(Cl)c(Nc3ccccc3S(=O)(=O)C(C)C)n2)c(OC(C)C)cc1C1CCNCC1 [Cere, ceritinib]
Could you determine which record has the numerically smaller Grade (SEM, visual inspection)? Candidates: P and Q Reply briefly: the label of your chosen item. P
